Test: in vitro
Conditions: mouse, liver microsomes
Description: Metabolic stability in mouse liver microsomes assessed as intrinsic clearance at 0.5 uM incubated for 30 mins by LC-MS/MS analysis
Listed next: entries and their corresponding CLint scaled at 0.5 h, 0.5 µM.
readout: CLint scaled at 0.5 h, 0.5 µM (mL/min/kg)

molecule	readout	units-text	bound-sign	test-value
CN(C(=O)c1ccccc1)c1cccc(-c2cc3ncccc3[nH]2)c1	CLint scaled at 0.5 h, 0.5 µM	mL/min/kg	=	5840
COc1ccc(C(=O)N2CCCC(c3cc4ncccc4[nH]3)C2)cc1OC (configuration not stated)	CLint scaled at 0.5 h, 0.5 µM	mL/min/kg	=	564
Nc1cc(C2CCCN(C(=O)c3ccccc3)C2)[nH]n1 (configuration not stated)	CLint scaled at 0.5 h, 0.5 µM	mL/min/kg	<	108
O=C(c1ccccc1)N1CCCC(c2cc3ncccn3n2)C1 (configuration not stated)	CLint scaled at 0.5 h, 0.5 µM	mL/min/kg	=	19200
O=C(c1ccccc1)N1CCCC(c2nc3ncccc3[nH]2)C1 (configuration not stated)	CLint scaled at 0.5 h, 0.5 µM	mL/min/kg	=	763
O=C(CCc1nc2cccnc2n1CCO)Nc1ccccc1	CLint scaled at 0.5 h, 0.5 µM	mL/min/kg	=	281
O=C(c1ccccc1)N1CC=C(c2cc3ccccc3[nH]2)CC1	CLint scaled at 0.5 h, 0.5 µM	mL/min/kg	=	13200
O=C(c1ccc(F)cc1)N1CCC(c2cc3ncccc3[nH]2)C1 (configuration not stated)	CLint scaled at 0.5 h, 0.5 µM	mL/min/kg	=	5590
CC(C)c1cc(C(=O)N2CCC(O)(c3cc4ncccc4[nH]3)CC2)on1	CLint scaled at 0.5 h, 0.5 µM	mL/min/kg	=	4900
COc1cc(C(=O)N2CCCC(c3cc4ncccc4[nH]3)C2)on1 (configuration not stated)	CLint scaled at 0.5 h, 0.5 µM	mL/min/kg	=	601
O=C(c1cc(C(F)(F)F)no1)N1CCOC(c2cc3ncccc3[nH]2)C1 (configuration not stated)	CLint scaled at 0.5 h, 0.5 µM	mL/min/kg	=	529

###

Experiment: in vitro
Conditions: human, liver microsomes
Description: Metabolic stability in human liver microsomes assessed as intrinsic clearance at 0.5 uM incubated for 30 mins by LC-MS/MS analysis
readout: log10 microsomal CLint at 0.5 h, 0.5 µM (log10 of the value in µL/min/mg)

molecule	readout	test-value
O=C(c1ccc(C(F)(F)F)nc1)N1CCCC(c2cc3ncccc3[nH]2)C1 (centres undefined)	log10 microsomal CLint at 0.5 h, 0.5 µM	1.45
O=C(c1cc(C(F)(F)F)no1)N1CCCC(c2cc3nc(NCc4ccccc4)ccc3[nH]2)C1 (centres undefined)	log10 microsomal CLint at 0.5 h, 0.5 µM	2.17
O=C(c1ccccc1)N1CC=C(c2cc3ccccc3[nH]2)CC1	log10 microsomal CLint at 0.5 h, 0.5 µM	1.79
O=C(c1ccc(F)cc1)N1CCCC(c2cc3ncc(Cl)cc3[nH]2)C1 (centres undefined)	log10 microsomal CLint at 0.5 h, 0.5 µM	1.65
O=C1c2ccccc2CN1CCc1cc2ncccc2[nH]1	log10 microsomal CLint at 0.5 h, 0.5 µM	1.84
O=C(c1cc(C2CC2)no1)N1CCCC(c2cc3ncccc3[nH]2)C1 (centres undefined)	log10 microsomal CLint at 0.5 h, 0.5 µM	1.53
COc1ccc2[nH]c(C3CCCN(C(=O)c4ccc(F)cc4)C3)cc2n1 (centres undefined)	log10 microsomal CLint at 0.5 h, 0.5 µM	1.42
N#Cc1cnc2cc(C3CCCN(C(=O)c4cc(C(F)(F)F)no4)C3)[nH]c2c1 (centres undefined)	log10 microsomal CLint at 0.5 h, 0.5 µM	1.52
O=C(c1ccccc1)N1CCCC(c2cn3ncccc3n2)C1 (centres undefined)	log10 microsomal CLint at 0.5 h, 0.5 µM	2.13
O=C(c1cc(C(F)(F)F)n[nH]1)N1CCCC(c2cc3ncccc3[nH]2)C1 (centres undefined)	log10 microsomal CLint at 0.5 h, 0.5 µM	2.10
CN(C(=O)c1ccccc1)c1cccc(-c2cc3ncccc3[nH]2)c1	log10 microsomal CLint at 0.5 h, 0.5 µM	1.70
CC(C)(C)c1cc(C(=O)N2CCCC(c3cc4ncccc4[nH]3)C2)on1 (centres undefined)	log10 microsomal CLint at 0.5 h, 0.5 µM	2.25
O=C(c1ccc(F)cc1)N1CCCC(c2cc3nc(N4CCCC4)ccc3[nH]2)C1 (centres undefined)	log10 microsomal CLint at 0.5 h, 0.5 µM	1.70
O=C(c1cc(C(F)(F)F)no1)N1CCCC(c2cc3ncccc3[nH]2)C1 (centres undefined)	log10 microsomal CLint at 0.5 h, 0.5 µM	2.26
CC(C)(C)OC(=O)N1CCCC(c2cn3nc(Cl)ccc3n2)C1 (centres undefined)	log10 microsomal CLint at 0.5 h, 0.5 µM	2.27
O=C(c1ccc(F)cc1)N1CCCC(c2cc3nc(C(F)(F)F)ccc3[nH]2)C1 (centres undefined)	log10 microsomal CLint at 0.5 h, 0.5 µM	1.89
O=C(c1cc(C(F)(F)F)no1)N1CCCC(c2cc3ncc(-c4ccccc4)cc3[nH]2)C1 (centres undefined)	log10 microsomal CLint at 0.5 h, 0.5 µM	2.29
O=C(c1ccc(F)cc1)N1CCC(c2cc3ncccc3[nH]2)C1 (centres undefined)	log10 microsomal CLint at 0.5 h, 0.5 µM	1.65
O=C(c1ccccc1)N1CCCC(c2cn3nc(Cl)ccc3n2)C1 (centres undefined)	log10 microsomal CLint at 0.5 h, 0.5 µM	1.76
O=C(Nc1cccc(-c2cc3ncccc3[nH]2)c1)c1ccccc1	log10 microsomal CLint at 0.5 h, 0.5 µM	2.56
O=C(c1ccccc1)N1CCCC(c2cc3ncccn3n2)C1 (centres undefined)	log10 microsomal CLint at 0.5 h, 0.5 µM	1.96
Cn1nccc1C(=O)N1CCCC(c2cc3ncccc3[nH]2)C1 (centres undefined)	log10 microsomal CLint at 0.5 h, 0.5 µM	1.44
OC1(c2cc3ncccc3[nH]2)CCN(Cc2ccccc2)CC1	log10 microsomal CLint at 0.5 h, 0.5 µM	1.97
O=C(c1cc(C(F)(F)F)no1)N1CCOC(c2cc3ncccc3[nH]2)C1 (centres undefined)	log10 microsomal CLint at 0.5 h, 0.5 µM	1.95
O=C(c1ccc(F)cc1)N1CC=C(c2cc3ncccc3[nH]2)CC1	log10 microsomal CLint at 0.5 h, 0.5 µM	1.55
O=C(c1cc(C(F)(F)F)no1)N1CCCC(c2cc3ncc(Br)cc3[nH]2)C1 (centres undefined)	log10 microsomal CLint at 0.5 h, 0.5 µM	1.94
CC(C)c1cc(C(=O)N2CCC(O)(c3cc4ncccc4[nH]3)CC2)on1	log10 microsomal CLint at 0.5 h, 0.5 µM	1.38
O=C(c1cc(C(F)(F)F)no1)N1CCC(c2cc3ncccc3[nH]2)C1 (centres undefined)	log10 microsomal CLint at 0.5 h, 0.5 µM	1.76
